# studyTarget: recombinant Axl tyrosine kinase (Homo sapiens, UniProt P30530)
# Construct: encompassing amino acids 473 to 894 of Axl; GST (N); made in house; host or cells: SF126 insect cells
# Sequence (P30530 473-894): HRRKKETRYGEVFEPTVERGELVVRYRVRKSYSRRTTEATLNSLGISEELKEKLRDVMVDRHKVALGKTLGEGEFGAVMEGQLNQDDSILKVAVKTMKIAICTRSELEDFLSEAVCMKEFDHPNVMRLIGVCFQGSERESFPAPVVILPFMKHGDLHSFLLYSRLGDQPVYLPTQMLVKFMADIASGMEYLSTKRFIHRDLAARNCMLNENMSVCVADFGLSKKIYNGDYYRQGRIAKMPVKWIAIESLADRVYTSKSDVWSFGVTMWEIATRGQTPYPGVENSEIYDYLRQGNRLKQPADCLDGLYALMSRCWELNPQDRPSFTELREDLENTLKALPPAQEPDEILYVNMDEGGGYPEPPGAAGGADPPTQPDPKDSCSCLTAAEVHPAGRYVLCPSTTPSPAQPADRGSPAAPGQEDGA
# assayProcedure: In vitro Axl kinase assay (AlphaScreen), Test (a)
# Format: biochemical
# assayContext: test compound at 1 μM; first value quoted; read-out: % Axl tyrosine kinase inhibition at 1 μM concentration
Entries and their measured inhibition at 1 µM follow.

recordSmiles: CN1CCC(n2cc(-c3cnc(N)c(-c4nc5cccc(C#N)c5o4)c3)cn2)CC1
unitTag: %
inhibition at 1 µM: 99.1

recordSmiles: Cc1cccc2nc(-c3cc(-c4cnn(C5CCN(C)CC5)c4)cnc3N)oc12
unitTag: %
inhibition at 1 µM: 100

recordSmiles: Nc1ncc(-c2cccc(CC(=O)O)c2)nc1-c1nc2ccc(F)cc2o1
unitTag: %
inhibition at 1 µM: 47.6

recordSmiles: CN(C)CCNC(=O)c1ccc(-c2cnc(N)c(-c3nc4cccnc4o3)c2)cc1
unitTag: %
inhibition at 1 µM: 99.6

recordSmiles: CCN1CCC(n2cc(-c3cnc(N)c(-c4nc5ncccc5o4)c3)cn2)CC1
unitTag: %
inhibition at 1 µM: 99.8
